Measured EC50 values are reported for all entries that follow.
target: Cannabinoid receptor 2 (Homo sapiens, UniProt P34972); test: Agonist activity at human CB2 receptor expressed in mouse AtT20 cells incubated for 60 mins by FLIPR membrane potential assay; assay type: functional, cell-based
Sequence (P34972 whole entry): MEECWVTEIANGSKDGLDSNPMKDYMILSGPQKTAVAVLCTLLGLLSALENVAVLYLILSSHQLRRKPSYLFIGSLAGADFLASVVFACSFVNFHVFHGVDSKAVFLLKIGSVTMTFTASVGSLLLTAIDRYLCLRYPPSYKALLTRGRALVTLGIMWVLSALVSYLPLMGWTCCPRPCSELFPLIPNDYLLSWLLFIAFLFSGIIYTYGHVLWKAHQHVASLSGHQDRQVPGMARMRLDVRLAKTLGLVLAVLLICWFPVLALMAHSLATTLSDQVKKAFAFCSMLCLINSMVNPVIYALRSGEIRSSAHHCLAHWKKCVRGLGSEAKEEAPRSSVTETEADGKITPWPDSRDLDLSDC
Value expressed in nM; do not type the unit.

// below: answered molecules
> print(dat)
                               entry.smiles  test.readout  recorded.measurement
1  CCCCn1cc(C(=O)N[C@H](C(N)=O)C(C)(C)C)c2cccnc21          EC50                    21
2  CCCCn1cc(C(=O)N[C@@H](Cc2ccccc2)C(N)=O)c2cccnc21          EC50                   319

The molecule listed as CCCCCn1cc(C(=O)N[C@H](C(N)=O)C(C)(C)C)c2cccnc21 has a reported EC50 of 7.1

Measured EC50 of CCCCn1cc(C(=O)N[C@H](C(N)=O)C(C)(C)C)c2ccccc21 : 6

Measured EC50, CCCCn1nc(C(=O)N[C@H](C(N)=O)C(C)C)c2ccccc21 : 4.2

EC50 for CCCCn1nc(C(=O)N[C@H](C(N)=O)C(C)(C)C)c2ccccc21 is 4.1

get_value(item= CCCCn1cc(C(=O)N[C@H](C(N)=O)C(C)C)c2cccnc21 , readout=EC50) returns 202

Kindly note the recorded EC50 for CCCCn1cc(C(=O)N[C@@H](Cc2ccccc2)C(N)=O)c2ccccc21 , which is 40

// CCCCCn1cc(C(=O)N[C@@H](Cc2ccccc2)C(N)=O)c2cccnc21 : EC50 value = 381

# molecule CCCCCn1cc(C(=O)N[C@H](C(N)=O)C(C)C)c2cccnc21 ; its EC50 = 47

EC50 measured on CCCCn1nc(C(=O)N[C@@H](Cc2ccccc2)C(N)=O)c2ccccc21 = 6.8

The measured EC50 associated with CCCCCn1cc(C(=O)c2cccc3ccccc23)c2ccccc21 reads 22

Please fill in: EC50 reported for CCCCn1cc(C(=O)N[C@H](C(N)=O)C(C)C)c2ccccc21 = 28
